METHOD: self-splicing fitness, log relative to wild type (ln ratio); higher = more splicing; Tetrahymena group I intron in knt gene, E. coli kanamycin selection, DiMSum; sequences stand for … in CUCUCU…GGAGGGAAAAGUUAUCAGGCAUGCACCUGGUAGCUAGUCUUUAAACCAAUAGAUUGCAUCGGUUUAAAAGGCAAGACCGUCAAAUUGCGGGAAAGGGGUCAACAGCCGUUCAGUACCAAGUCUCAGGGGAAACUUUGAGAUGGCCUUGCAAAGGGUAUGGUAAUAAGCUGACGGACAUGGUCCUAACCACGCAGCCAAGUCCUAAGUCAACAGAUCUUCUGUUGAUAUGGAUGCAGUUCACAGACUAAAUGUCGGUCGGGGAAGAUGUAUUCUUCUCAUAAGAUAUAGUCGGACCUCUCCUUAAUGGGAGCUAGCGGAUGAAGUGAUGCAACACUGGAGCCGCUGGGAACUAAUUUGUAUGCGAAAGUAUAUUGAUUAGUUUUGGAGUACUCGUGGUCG;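 note: selection with 25 µg/mL kanamycin versus none on LB agar overnight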
EXPERIMENTAL_SETUP: 30 °C
Kind request: treat -2 as inclusive, so self-splicing fitness (ln) at -2 or higher is T, anything lower is F.

Reference set, count: 5
| SEQUENCE_CHAIN | DISCRETE_LABEL |
| --- | --- |
| GAUUAGCAAUAUUACGAUUA | T |
| ACCUAGCAAUAUUACGGGGU | F |
| GGACAGCAAUAUUACGAACG | T |
| CCCCAGCAAUAUUACGUUAA | F |
| UAAAAGCAAUAUUACGUGUG | T |

Could you verify whether the entry CAGGAGCAAUAUUACGGAAG shows self-splicing fitness (ln) of no less than -2?
F

* * *

METHOD: self-splicing fitness, log relative to wild type (ln ratio); higher = more splicing; Tetrahymena group I intron in knt gene, E. coli kanamycin selection, DiMSum; sequences stand for … in CUCUCU…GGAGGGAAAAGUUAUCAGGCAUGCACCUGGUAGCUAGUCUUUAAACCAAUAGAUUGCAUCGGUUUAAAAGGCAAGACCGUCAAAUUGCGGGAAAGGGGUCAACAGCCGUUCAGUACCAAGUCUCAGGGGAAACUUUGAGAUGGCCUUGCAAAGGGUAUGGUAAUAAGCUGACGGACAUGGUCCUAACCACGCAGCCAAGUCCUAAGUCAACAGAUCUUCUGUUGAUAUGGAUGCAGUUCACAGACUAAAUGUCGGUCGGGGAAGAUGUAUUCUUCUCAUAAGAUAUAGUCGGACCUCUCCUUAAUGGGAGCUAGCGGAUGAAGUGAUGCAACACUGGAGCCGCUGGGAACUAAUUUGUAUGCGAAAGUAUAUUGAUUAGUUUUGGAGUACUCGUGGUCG
EXPERIMENTAL_SETUP: 30 °C
ATTRIBUTE_MEASURED: self-splicing fitness (ln)
Lab note: jot the number down without any unit.

| SEQUENCE_CHAIN | MEASURED |
| --- | --- |
| CAUGAGCAAUAUUACGGAUG | -3.02 |
| GGUAAGCAAUAUUACGUGGA | -2.91 |
| GUCAAGCAAUAUUACGACUU | -3.18 |
| UCGAAGCAAUAUUACGUCGC | -1.76 |
| GGCCAGCAAUAUUACGACUA | -0.921 |

Okay, next one:
Reported self-splicing fitness (ln), sequence GCUUAGCAAUAUUACGAGUA : ____
-1.37

* * *

METHOD: self-splicing fitness, log relative to wild type (ln ratio); higher = more splicing; Tetrahymena group I intron in knt gene, E. coli kanamycin selection, DiMSum; sequences stand for … in CUCUCU…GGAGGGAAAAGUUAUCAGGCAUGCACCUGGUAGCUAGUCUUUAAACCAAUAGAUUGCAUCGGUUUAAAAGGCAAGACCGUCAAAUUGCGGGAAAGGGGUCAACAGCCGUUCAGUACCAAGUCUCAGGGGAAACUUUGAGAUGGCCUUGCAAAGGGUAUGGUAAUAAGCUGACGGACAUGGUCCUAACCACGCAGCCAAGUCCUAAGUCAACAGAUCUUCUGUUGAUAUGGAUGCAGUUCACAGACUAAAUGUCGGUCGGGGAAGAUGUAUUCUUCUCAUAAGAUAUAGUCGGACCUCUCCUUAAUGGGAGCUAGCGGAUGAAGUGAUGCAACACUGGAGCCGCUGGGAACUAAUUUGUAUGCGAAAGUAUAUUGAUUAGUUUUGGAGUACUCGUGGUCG
EXPERIMENTAL_SETUP: 30 °C
Measured self-splicing fitness (ln) of individual entries
Lab note: jot the number down without any unit.

| SEQUENCE_CHAIN | self-splicing fitness (ln) |
| --- | --- |
| UGCCAGCAAUAUUACGCUCA | -0.505 |
| UGUUAGCAAUAUUACGAAGG | -1.88 |
| CAAUAGCAAUAUUACGUUCU | -4.4 |
| GUCAAGCAAUAUUACGCCAG | -4.54 |
| GGAUAGCAAUAUUACGCUUA | -1.88 |
| ACCUAGCAAUAUUACGAGCG | -1.06 |
| CCUCAGCAAUAUUACGCUUA | -4.1 |
| ACCCAGCAAUAUUACGCGCG | -1.66 |

Okay, next one:
Reported self-splicing fitness (ln), sequence UAUGAGCAAUAUUACGCGGU : ____
-3.41

* * *

METHOD: self-splicing fitness, log relative to wild type (ln ratio); higher = more splicing; Tetrahymena group I intron in knt gene, E. coli kanamycin selection, DiMSum; sequences stand for … in CUCUCU…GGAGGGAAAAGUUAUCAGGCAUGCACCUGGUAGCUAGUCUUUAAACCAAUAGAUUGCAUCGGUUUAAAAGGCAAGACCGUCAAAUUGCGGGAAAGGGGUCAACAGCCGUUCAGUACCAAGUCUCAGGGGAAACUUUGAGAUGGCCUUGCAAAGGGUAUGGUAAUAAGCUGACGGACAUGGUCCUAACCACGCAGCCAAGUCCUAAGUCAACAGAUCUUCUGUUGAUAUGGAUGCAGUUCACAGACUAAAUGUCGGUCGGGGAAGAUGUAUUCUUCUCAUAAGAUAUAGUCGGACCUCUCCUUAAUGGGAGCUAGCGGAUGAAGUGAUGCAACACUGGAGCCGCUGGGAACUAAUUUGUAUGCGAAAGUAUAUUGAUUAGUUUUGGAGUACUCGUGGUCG
EXPERIMENTAL_SETUP: 37 °C
ATTRIBUTE_MEASURED: self-splicing fitness (ln)
Lab note: jot the number down without any unit.

| SEQUENCE_CHAIN | self-splicing fitness (ln) |
| --- | --- |
| GGCUAGCAAUAUUACGAUGG | -2.46 |
| GAGGAGCAAUAUUACGGUGC | -2.32 |
| AUAAAGCAAUAUUACGGAAU | -0.475 |
| CGUGAGCAAUAUUACGCGGC | -3.19 |
| AACGAGCAAUAUUACGCACC | -1.65 |
| UCCGAGCAAUAUUACGGAUG | -1.77 |
| AUAUAGCAAUAUUACGUGUC | -1.88 |
| AUACAGCAAUAUUACGUGUU | -2.64 |

Okay, next one:
Reported self-splicing fitness (ln), sequence GCCGAGCAAUAUUACGUUCA : ____
-0.854

* * *

METHOD: self-splicing fitness, log relative to wild type (ln ratio); higher = more splicing; Tetrahymena group I intron in knt gene, E. coli kanamycin selection, DiMSum; sequences stand for … in CUCUCU…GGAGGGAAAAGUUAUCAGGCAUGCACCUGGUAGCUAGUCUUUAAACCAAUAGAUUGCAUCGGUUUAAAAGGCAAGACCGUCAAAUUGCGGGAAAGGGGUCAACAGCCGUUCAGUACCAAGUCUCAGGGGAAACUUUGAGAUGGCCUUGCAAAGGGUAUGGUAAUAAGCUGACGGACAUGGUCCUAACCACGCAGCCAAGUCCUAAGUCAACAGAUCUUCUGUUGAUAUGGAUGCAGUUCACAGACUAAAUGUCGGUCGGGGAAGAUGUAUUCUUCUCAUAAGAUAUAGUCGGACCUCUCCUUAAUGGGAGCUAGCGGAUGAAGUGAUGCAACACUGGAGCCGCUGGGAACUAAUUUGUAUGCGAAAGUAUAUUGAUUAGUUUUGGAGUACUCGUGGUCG
EXPERIMENTAL_SETUP: 37 °C
Measured self-splicing fitness (ln) of individual entries
Lab note: jot the number down without any unit.

The examples below pair each entry with its known result.
| SEQUENCE_CHAIN | self-splicing fitness (ln) |
| --- | --- |
| UGCCAGCAAUAUUACGGUCA | -0.0439 |
| CGUGAGCAAUAUUACGAGCU | -2.99 |

Okay, next one:
Reported self-splicing fitness (ln), sequence CGGCAGCAAUAUUACGACAG : ____
-1.27

* * *

METHOD: self-splicing fitness, log relative to wild type (ln ratio); higher = more splicing; Tetrahymena group I intron in knt gene, E. coli kanamycin selection, DiMSum; sequences stand for … in CUCUCU…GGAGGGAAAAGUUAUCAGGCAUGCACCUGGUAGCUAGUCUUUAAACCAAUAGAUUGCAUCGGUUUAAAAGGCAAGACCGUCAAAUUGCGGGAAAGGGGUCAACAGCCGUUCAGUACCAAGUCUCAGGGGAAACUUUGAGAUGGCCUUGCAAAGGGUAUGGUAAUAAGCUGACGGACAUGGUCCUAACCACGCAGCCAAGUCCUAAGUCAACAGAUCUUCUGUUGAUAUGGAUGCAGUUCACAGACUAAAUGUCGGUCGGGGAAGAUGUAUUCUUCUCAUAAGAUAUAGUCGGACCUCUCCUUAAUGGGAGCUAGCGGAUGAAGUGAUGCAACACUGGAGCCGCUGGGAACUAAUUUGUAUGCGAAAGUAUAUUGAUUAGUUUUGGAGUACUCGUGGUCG
EXPERIMENTAL_SETUP: 37 °C
Measured self-splicing fitness (ln) of individual entries
Lab note: jot the number down without any unit.

The examples below pair each entry with its known result.
| SEQUENCE_CHAIN | self-splicing fitness (ln) |
| --- | --- |
| UAAGAGCAAUAUUACGUACU | -0.993 |
| CGGGAGCAAUAUUACGCAUA | -1.96 |
| UGGCAGCAAUAUUACGUGGG | -2.02 |

Reported self-splicing fitness (ln), sequence GACCAGCAAUAUUACGAAUG : ____
-1.49

Reported self-splicing fitness (ln), sequence GCCAAGCAAUAUUACGUACG : ____
-1.56

Reported self-splicing fitness (ln), sequence UGAAAGCAAUAUUACGCAGA : ____
-1.93

Source listed as the supplement of paper PMC7877785.
